Value source: patent US20180327803A1

- Assayed target: human serum-derived IgA polyclonal antibody (#I4036; Sigma-Aldrich) (human)
- Protocol details: ELISA
Assay readout: OD

# Binder, Assay readout, Data value
data = [
    ("R3-75 (scFv, not shown: small tags and cut ends) scFv: QSVKESGGRLVTPGTPLTLTCTVSGIDLSSNAMSWVRQAPGEGLEWIGTISTVGKTYFASWAKGRFTISKTSTTVDLRITSPTTEDTATYFCATRYDSYGYAYNYWFGTLWGPGTLVTVTSGGGGSGGGGSGGGGSELDLTQTPPSVSGAVGGTVTIKCQASENINSELAWYQQKPGQRPKLLIYDASKLASGVPSRFSGSGSGTEYTLTISGMQCDDAATYYCQSTYYDGNYVYAFGGGTEVDVTRS", "OD", 3.06),
]
